The reported numbers originate from patent US9200001B2.

The molecules below have reported pKi for human PDE10A2 (Homo sapiens (Human), UniProt Q9Y233).
Just so you know, pKi here is -log10 of the concentration in molar units; reply with that number alone.

Answered examples (3):
{"columns": ["molecule", "experimentalEndpoint", "observed"],
 "data": [
  ["Cc1cc([C@H]2C[C@@H]2c2nc3ccccc3n2C)cc(-n2nc(C)nc2C)n1 (relative stereo)", "pKi", 7.74],
  ["CCc1nc(C)nn1-c1cc([C@@H]2C[C@H]2c2nc3ccccc3n2C)nc(C)n1", "pKi", 9.40],
  ["Cc1nc([C@@H]2C[C@H]2c2nc3ccccc3n2Cc2ccccn2)cc(-n2nc(C)nc2C)n1 (stereo in doubt)", "pKi", 7.88]
]}

Task: Checklist item: pKi tested on human PDE10A2 (Homo sapiens (Human), UniProt Q9Y233), entry Cc1nc(C2CC2c2nc3ccccc3n2Cc2ccccc2)cc(-n2nc(C)nc2C)n1 (stereo not drawn) , value?
Result: 7.87

Task: Look up pKi with human PDE10A2 (Homo sapiens (Human), UniProt Q9Y233) for this molecule: COc1ccc(Cc2nc(C)nn2-c2cc(CCc3ccc4ccccc4n3)nc(C)n2)nc1OC
Sequence (Q9Y233 267-1055): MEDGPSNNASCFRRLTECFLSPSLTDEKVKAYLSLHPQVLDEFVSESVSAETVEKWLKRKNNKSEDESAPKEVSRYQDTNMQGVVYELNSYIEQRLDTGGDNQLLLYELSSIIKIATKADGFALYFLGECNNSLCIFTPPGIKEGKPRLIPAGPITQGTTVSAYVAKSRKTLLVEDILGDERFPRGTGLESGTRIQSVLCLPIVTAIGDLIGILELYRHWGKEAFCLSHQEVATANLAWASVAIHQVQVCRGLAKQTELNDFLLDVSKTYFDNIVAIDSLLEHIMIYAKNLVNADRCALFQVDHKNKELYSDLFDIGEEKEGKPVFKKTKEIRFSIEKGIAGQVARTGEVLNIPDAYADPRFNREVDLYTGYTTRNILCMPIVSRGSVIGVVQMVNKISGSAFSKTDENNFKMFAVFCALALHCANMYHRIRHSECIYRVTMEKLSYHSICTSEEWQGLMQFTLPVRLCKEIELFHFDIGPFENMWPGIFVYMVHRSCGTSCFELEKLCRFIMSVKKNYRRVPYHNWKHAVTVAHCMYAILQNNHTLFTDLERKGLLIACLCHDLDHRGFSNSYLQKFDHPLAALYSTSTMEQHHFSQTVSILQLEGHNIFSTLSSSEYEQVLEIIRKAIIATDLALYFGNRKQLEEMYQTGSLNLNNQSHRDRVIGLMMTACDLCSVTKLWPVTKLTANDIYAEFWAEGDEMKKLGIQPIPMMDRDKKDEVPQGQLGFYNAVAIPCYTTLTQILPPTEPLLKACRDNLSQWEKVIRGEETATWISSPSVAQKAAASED
Result: 10.55
